system: 388556-164-R-J1-PDC complex spheroid viability; assay: Anticancer human tumor 388556-164-R-J1-PDC patient-derived colon adenocarcinoma cell line growth inhibition [RAS]; conditions: second compound 0.316 µM; first compound 0.0316 µM; stronger effect = lower value
result-type: viability, T/C (%)
Report the value in % with no unit label.

These recorded examples may help you get a feel for the data.
| molecule | viability, T/C [%] |
| --- | --- |
| CC(C)n1nc(-c2ccc3oc(N)nc3c2)c2c(N)ncnc21 + C=CC(=O)N1CCN(c2nc(OCC3CCCN3C)nc3c(F)c(-c4nc(N)cc(C)c4C(F)(F)F)c(Cl)cc23)C(C)C1 | 59.4 |
| CC1(O)CCCC1n1c(=O)c(C(F)F)cc2cnc(NC3CCN(S(C)(=O)=O)CC3)nc21 (stereo not drawn) + C#Cc1c(F)ccc2cc(O)cc(-c3ncc4c(N5CC6CCC(C5)N6)nc(OCC56CCCN5CC(F)C6)nc4c3F)c12 | 98.5 |

Shift focus to the following entry.
Qu. Sample O=C(c1ccc(F)c(F)c1Nc1ccc(I)cc1F)N1CC(O)([C@@H]2CCCCN2)C1 + C#Cc1c(F)ccc2cc(O)cc(-c3ncc4c(N5CC6CCC(C5)N6)nc(OCC56CCCN5CC(F)C6)nc4c3F)c12 — what was its viability, T/C?
Ans. 64.3

---

# Lookup of reported IC50 keyed by entry
system: 388556-164-R-J1-PDC complex spheroid viability; experiment: Anticancer human tumor 388556-164-R-J1-PDC cell line growth inhibition [RAS]; details: curve of compound;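 also: spheroids exposed to compound for 7 days before readout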

| molecule | IC50 |
| --- | --- |
| NC1c2ccccc2OC12CCN(c1cnc3c(N4CCCc5ncccc54)n[nH]c3n1)CC2 (stereo not given) | 242 nM [middle of 4 runs] |

// next item, IC50 requested
Qu. Need IC50, item CCC(CC)c1cc(NC2CCC(N)C2)n2nccc2n1 (stereo not given)
Ans. 2.97 µM [middle of 4 runs]

---

test system: 388556-164-R-J1-PDC complex spheroid viability; test: Anticancer human tumor 388556-164-R-J1-PDC cell line growth inhibition [RAS]; conditions: second compound 0.03 µM; first compound 0.00316 µM; stronger effect = lower value;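 also: spheroids exposed to compound for 7 days before readout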;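 as to viability, T/C: 100% = DMSO vehicle control luminescence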
result-type: viability, T/C (%)
# number only, unit % dropped from output

Sample answers from the record:
| compound | viability, T/C (%) |
| --- | --- |
| Nc1ccn(C2OC(CO)C(O)C2(F)F)c(=O)n1 (stereo unspecified) + CCn1c(-c2cc(N3CCN(C)CC3)cnc2C(C)OC)c2c3cc(ccc31)-c1csc(n1)CC(NC(=O)C1CC1C)C(=O)N1CCCC(N1)C(=O)OCC(C)(C)C2 | 72 |
| O=C(c1ccc(F)c(F)c1Nc1ccc(I)cc1F)N1CC(O)([C@@H]2CCCCN2)C1 + CCn1c(-c2cc(N3CCN(C)CC3)cnc2C(C)OC)c2c3cc(ccc31)-c1csc(n1)CC(NC(=O)C1CC1C)C(=O)N1CCCC(N1)C(=O)OCC(C)(C)C2 | 63.6 |
| CC(C)n1nc(-c2ccc3oc(N)nc3c2)c2c(N)ncnc21 + CCn1c(-c2cccnc2C(C)OC)c2c3cc(ccc31)N1CCOC(CC(NC(=O)C(C(C)C)N(C)C(=O)C3(F)CCN(C(=O)C#CC(C)(C)N(C)C)CC3)C(=O)N3CCCC(N3)C(=O)OCC(C)(C)C2)C1 | 89.1 |
| C=CC(=O)N1CCN(c2nc(OCC3CCCN3C)nc3c(F)c(-c4nc(N)cc(C)c4C(F)(F)F)c(Cl)cc23)C(C)C1 (stereo unspecified) + CCn1c(-c2cc(N3CCN(C)CC3)cnc2C(C)OC)c2c3cc(ccc31)-c1csc(n1)CC(NC(=O)C1CC1C)C(=O)N1CCCC(N1)C(=O)OCC(C)(C)C2 | 63.6 |
| CC(C)n1nc(-c2ccc3oc(N)nc3c2)c2c(N)ncnc21 + CCn1c(-c2cc(N3CCN(C)CC3)cnc2C(C)OC)c2c3cc(ccc31)-c1csc(n1)CC(NC(=O)C1CC1C)C(=O)N1CCCC(N1)C(=O)OCC(C)(C)C2 | 62.5 |

Now look at this entry.
Qu. Would you kindly share the measured viability, T/C for CCN1CCN(Cc2ccc(Nc3ncc(F)c(-c4cc(F)c5nc(C)n(C(C)C)c5c4)n3)nc2)CC1 + CCn1c(-c2cc(N3CCN(C)CC3)cnc2C(C)OC)c2c3cc(ccc31)-c1csc(n1)CC(NC(=O)C1CC1C)C(=O)N1CCCC(N1)C(=O)OCC(C)(C)C2 ?
Ans. 59
